- System: HCC 1806
- Test details: triple negative breast cell panel, EC50 2D/3D
- Type: cell-based
- Details: Homo sapiens, HCC1806; HCC 1806, 3D; read-out: EC50 [nM] 3D
A collection of molecules and their measured EC50
Test readout: EC50 (nM)

[
  {
    "Molecule": "CS(=O)(=O)CCNCc1ccc(-c2ccc3ncnc(Nc4ccc(OCc5cccc(F)c5)c(Cl)c4)c3c2)o1 [lapatinib, reference compound]",
    "Comparator": ">",
    "Meas value": 4000
  },
  {
    "Molecule": "CN(C)C/C=C/C(=O)Nc1cc2c(Nc3ccc(F)c(Cl)c3)ncnc2cc1O[C@H]1CCOC1",
    "Comparator": "=",
    "Meas value": 47
  }
]
